Recorded pIC50 by entry
Biological target: BRD4-BD1 (Homo sapiens (Human))
Experiment: BRD4 AlphaScreen assay, BRD4-BD1
Conditions: biotin-labeled tetra-acetylated histone H4 peptide, 75 min, room temperature, read-out: BRD4 BD-1 enzyme IC50
pIC50: −log10 of the molar value. Where a name gives a salt, the structure may show the parent alone.

Reference set, count: 5
* Cc1cc2c(cc(NCC3CN(C(=O)OC(C)(C)C)C3)c3nnc(C)n32)n1Cc1ccccc1 | 6.00 to 7.00
* Cc1cc2c(cc(NCCO)c3nnc(C)n32)n1Cc1ccccc1 | ≥ 7.00
* CCNC(=O)CCn1ccc(-c2cc3c(ccc4nnc(C)n43)n2Cc2ccccc2)n1 | ≥ 7.00
* Cc1nnc2ccc3c(cc(-c4cncs4)n3Cc3ccccc3)n12 | 6.00 to 7.00
* Cc1nnc2ccc3c(cc(C(=O)NCCN4CCOCC4)n3Cc3cccc(Cl)c3)n12 [Example 119, Trifluoroacetate Salt] | ≥ 7.00

If you can, please state the reported pIC50 value of `CCCNC(=O)c1cc2c(ccc3nnc(C)n32)n1Cc1ccccc1` .
≥ 7.00

Entry Cc1nnc2ccc3c(cc(-c4ccn(C)n4)n3Cc3cc(Cl)cc(CN4CCCC4)c3)n12 [Example 190, bis(trifluoroacetate) Salt] : reported pIC50 = ?
≥ 7.00

Any idea what pIC50 was measured for CCn1ccc(-c2cc3c(ccc4nnc(C)n43)n2Cc2cc(Cl)cc(CN3CCC3)c2)n1 [Example 188, tris(trifluoroacetate) Salt] ?
≥ 7.00

Item under review: `Cc1nnc2ccc3c(cc(-c4cn(CCN5CCOCC5)cn4)n3Cc3ccccc3)n12` . Reported pIC50?
≥ 7.00

Field request: pIC50 | item: `CCNC(=O)Nc1cc2c(cc(C)n2Cc2ccccc2)n2c(C)nnc12`
≥ 7.00

====

Target: BRD4-BD1 (Homo sapiens (Human))
Assay: BRD4 AlphaScreen assay, BRD4-BD1
Format: binding
Settings: biotin-labeled tetra-acetylated histone H4 peptide, 75 min, room temperature, read-out: BRD4 BD-1 enzyme IC50
pIC50: −log10 of the molar value.
Overview of reported pIC50 across a group of compounds:

Please review the entries below; each comes with its answer.
• Cc1nnc2ccc3c(cc(-c4ccccn4)n3Cc3ccccc3)n12 [Example 68] = 6.00 to 7.00
• CCn1cnc(-c2cc3c(ccc4nnc(C)n43)n2Cc2ccccc2)c1 [Example 80] = ≥ 7.00
• Cc1cc2c(ccc3nnc(C)n32)n1Cc1cccc(C#N)c1 [Example 20] = 6.00 to 7.00

Need pIC50, item Cc1nnc2ccc3c(cc(C(N)=O)n3Cc3ccccc3)n12 [Example 58]
≥ 7.00

====

Target: BRD4-BD2 (Homo sapiens (Human), UniProt O60885)
Experiment: BRD4 AlphaScreen assay, BRD4-BD2
Conditions: biotin-labeled tetra-acetylated histone H4 peptide, 75 min, room temperature, read-out: BRD4 BD-2 enzyme IC50
Structures can show the parent of a compound that is named as a salt.
measurement label: IC50

Answered examples (5):
• CCC(=O)N1CC(n2ccc(-c3cc4c(ccc5nnc(C)n54)n3Cc3cccc(Cl)c3)n2)C1 [Example 163, Trifluoroacetate Salt] = ≤ 100 nM
• Cc1nnc2ccc3c(cc(-c4ccn(C5CN(CCC#N)C5)n4)n3Cc3cccc(Cl)c3)n12 [Example 181, bis(trifluoroacetate) Salt] = ≤ 100 nM
• CN[C@H]1CC[C@@H](Nc2cc3c(cc(C)n3Cc3ccccc3)n3c(C)nnc23)CC1 = ≤ 100 nM
• Cc1nnc2ccc3c(ccn3Cc3ccccc3)n12 = ≤ 100 nM
• Cc1cc2c(ccc3nnc(C)n32)n1S(=O)(=O)c1ccccc1 = 100 to 1000 nM

# returns recorded IC50 (system: BRD4-BD2 (Homo sapiens (Human), UniProt O60885)) for Cc1nnc2ccc3c(cc(C(=O)NC4CN(C)C4)n3Cc3cccc(Cl)c3)n12 [Example 118, bis(trifluoroacetate) Salt]
100 to 1000 nM

Short answer please: IC50, BRD4-BD2 (Homo sapiens (Human), UniProt O60885), entry Cc1nnc2ccc3c(cc(-c4ncco4)n3Cc3cccc(Cl)c3)n12 [Example 194, Trifluoroacetate Salt]
≤ 100 nM

// lookup IC50 | system=BRD4-BD2 (Homo sapiens (Human), UniProt O60885) | key= Cc1nnc2ccc3c(cc(-c4cc[nH]n4)n3Cc3cccc(CN4CCC4)c3)n12 [Example 182, tris(trifluoroacetate) Salt]
≤ 100 nM

What value of IC50 on BRD4-BD2 (Homo sapiens (Human), UniProt O60885) does `Cc1nnc2ccc3c(cc(-c4ccn(CC#N)n4)n3Cc3ccccc3)n12` have?
≤ 100 nM

Give BRD4-BD2 (Homo sapiens (Human), UniProt O60885) IC50 for `Cc1cc2c(cc(NC(=O)N(C)C)c3nnc(C)n32)n1Cc1ccccc1`
≤ 100 nM

// fetch BRD4-BD2 (Homo sapiens (Human), UniProt O60885) IC50 for Cc1nnc2ccc3c(cc(-c4ncco4)n3Cc3cc(Cl)cc(CN4CC(C)(C)C4)c3)n12 [Example 196, bis(trifluoroacetate) Salt]
≤ 100 nM

Could you share what IC50 was measured for `Cc1cc2c(cc(NC(=O)C(C)C)c3nnc(C)n32)n1Cc1ccccc1` , tested on BRD4-BD2 (Homo sapiens (Human), UniProt O60885)?
≤ 100 nM

Form entry - test system: BRD4-BD2 (Homo sapiens (Human), UniProt O60885); read-out: IC50; compound: Cc1nnc2ccc3c(cc(-c4ccn(C5CN(C(=O)CN(C)C)C5)n4)n3Cc3cccc(Cl)c3)n12 [Example 162, bis(trifluoroacetate) Salt]
≤ 100 nM

Form field - read-out: IC50; system: BRD4-BD2 (Homo sapiens (Human), UniProt O60885); submitted item: CCCCC(c1ccccc1)n1c(C)cc2c1ccc1nnc(C)n12 (racemic)
100 to 1000 nM

Could you share what IC50 was measured for `Cc1cc2c(ccc3nnc(C)n32)n1Cc1cccc(O)c1` , tested on BRD4-BD2 (Homo sapiens (Human), UniProt O60885)?
≤ 100 nM

====

Target: BRD4-BD1 (Homo sapiens (Human), UniProt O60885)
Assay: BRD4 AlphaScreen assay, BRD4-BD1
Details: biotin-labeled tetra-acetylated histone H4 peptide, 75 min, room temperature, read-out: BRD4 BD-1 enzyme IC50
Structures can show the parent of a compound that is named as a salt.
measurement label: IC50

• Cc1cc2c(cc(N[C@@H]3CCOC3)c3nnc(C)n32)n1Cc1ccccc1 = ≤ 100 nM
• Cc1nnc2ccc3c(cc(-c4ccn(C(C)CC#N)n4)n3Cc3ccccc3)n12 (racemic) [Example 87, Trifluoroacetate Salt] = ≤ 100 nM
• Cc1cc2c(ccc3nnc(C)n32)n1Cc1cccc(CN[C@H]2C[C@H](O)C2)c1 = 100 to 1000 nM

Switching to the query record.
Field request: IC50 | item: Cc1nnc2ccc3c(cc(-c4ccn(CCC#N)n4)n3Cc3cccc(CN4CCC4)c3)n12 [Example 183, bis(trifluoroacetate) Salt]
≤ 100 nM

====

Listed next: entries and their corresponding IC50.
Biological target: BRD4-BD2 (Homo sapiens (Human), UniProt O60885)
Test: BRD4 AlphaScreen assay, BRD4-BD2
Conditions: biotin-labeled tetra-acetylated histone H4 peptide, 75 min, room temperature, read-out: BRD4 BD-2 enzyme IC50
Experimental: BRD4-BD1 and BRD4-BD2 assays were conducted in white 384-well polystyrene plate in a final volume of 20 μL for BD1 and 40 μL for BD2. Inhibitors were first serially diluted in DMSO and added to the plate wells before the addition of other reaction components. The final concentration of DMSO in the assay was 1.25% (BD1) and 0.83% (BD2). […] After plate sealing, the plate was incubated in the dark at room temperature for 75 min. before reading on a PHERAstar FS plate reader (BMG Labtech). […]
Where a name gives a salt, the structure may show the parent alone.

• Cc1nnc2ccc3c(cc(-c4ccn(CC(C)C#N)n4)n3Cc3ccccc3)n12 (racemic) [Example 88, Trifluoroacetate Salt] = ≤ 100 nM
• Cc1cc2c(ccc3nnc(C)n32)n1C(CO)c1ccccc1 (racemic) = 100 to 1000 nM
• Cc1nnc2ccc3c(cc(-c4ccn(C5CN(CCO)C5)n4)n3Cc3cccc(Cl)c3)n12 [Example 179, bis(trifluoroacetate) Salt] = ≤ 100 nM
• Cc1nnc2ccc3c(cc(C(=O)N[C@H]4C[C@H](C#N)C4)n3Cc3ccccc3)n12 = ≤ 100 nM
• Cc1nnc2ccc3c(cc(C4=NCCO4)n3Cc3cccc(Cl)c3)n12 = ≤ 100 nM
• Cc1cc2c(cc(Nc3ccncc3)c3nnc(C)n32)n1Cc1ccccc1 = ≤ 100 nM

Reported IC50 for `CC(=O)Nc1cc2c(cc(C)n2Cc2ccccc2)n2c(C)nnc12` : what is it?
≤ 100 nM

For the molecule `Cc1cc2c(ccc3nnc(C)n32)n1Cc1cccnc1` , what IC50 is on record?
100 to 1000 nM

====

Target: BRD4-BD1 (Homo sapiens (Human), UniProt O60885)
Experiment: BRD4 AlphaScreen assay, BRD4-BD1
Settings: biotin-labeled tetra-acetylated histone H4 peptide, 75 min, room temperature, read-out: BRD4 BD-1 enzyme IC50
Where a name gives a salt, the structure may show the parent alone.
Listed below: IC50 values for each entry.

• Cc1nnc2ccc3c(cc(Cn4ccnc4)n3Cc3ccccc3)n12 = 1000 to 10000 nM

Param readout = IC50; param system = BRD4-BD1 (Homo sapiens (Human), UniProt O60885); param query = CCN1CC(n2ccc(-c3cc4c(ccc5nnc(C)n54)n3Cc3cccc(Cl)c3)n2)C1 [Example 160, bis(trifluoroacetate) Salt] ; response: value
≤ 100 nM

Reported IC50 for BRD4-BD1 (Homo sapiens (Human), UniProt O60885), given `Cc1cc2c(cc(N[C@H]3CC[C@H](N)CC3)c3nnc(C)n32)n1Cc1ccccc1` ?
≤ 100 nM

What is its IC50 for BRD4-BD1 (Homo sapiens (Human), UniProt O60885)? Entry: `Cc1nnc2ccc3c(cc(C(=O)N(C)C)n3Cc3ccccc3)n12`
100 to 1000 nM

Form entry - test system: BRD4-BD1 (Homo sapiens (Human), UniProt O60885); read-out: IC50; compound: Cc1nnc2ccc3c(cc(C(=O)NCCCO)n3Cc3ccccc3)n12 [Example 123, Trifluoroacetate Salt]
100 to 1000 nM

Param readout= IC50; system= BRD4-BD1 (Homo sapiens (Human), UniProt O60885); entry= `Cc1nnc2ccc3c(cc(C4=NCCO4)n3Cc3cccc(Cl)c3)n12` ; returns value.
≤ 100 nM

Which IC50 is reported with BRD4-BD1 (Homo sapiens (Human), UniProt O60885) for this entry: `CNc1cc2c(cc(C)n2Cc2ccccc2)n2c(C)nnc12` ?
≤ 100 nM
